molecular target: human CD33 K130A (human, UniProt P20138 18-364); experiment: flow cytometry on HEK293-T, alanine scan
Sequence (P20138 18-364 K130A limits assumed): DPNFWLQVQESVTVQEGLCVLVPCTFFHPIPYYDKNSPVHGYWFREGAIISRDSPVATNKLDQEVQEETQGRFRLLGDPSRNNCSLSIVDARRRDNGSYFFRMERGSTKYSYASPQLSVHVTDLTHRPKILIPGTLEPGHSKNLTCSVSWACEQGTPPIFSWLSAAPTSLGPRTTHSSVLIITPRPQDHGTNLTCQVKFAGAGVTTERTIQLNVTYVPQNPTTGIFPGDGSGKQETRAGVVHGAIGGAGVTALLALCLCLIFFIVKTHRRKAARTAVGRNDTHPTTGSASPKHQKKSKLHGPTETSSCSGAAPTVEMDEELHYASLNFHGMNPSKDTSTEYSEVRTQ
Listed here: items and their measured Mean % WT Binding.
Give the value in % WT binding but do not write % WT binding after it.

binder | unit string | Mean % WT Binding
Refmab #2 (antibody, V domains shown, The alanine scan used IgG or Fab) VH: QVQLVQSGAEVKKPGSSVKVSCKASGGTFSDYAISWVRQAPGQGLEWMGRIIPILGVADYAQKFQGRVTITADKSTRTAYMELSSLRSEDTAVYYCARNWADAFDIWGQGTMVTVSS VL: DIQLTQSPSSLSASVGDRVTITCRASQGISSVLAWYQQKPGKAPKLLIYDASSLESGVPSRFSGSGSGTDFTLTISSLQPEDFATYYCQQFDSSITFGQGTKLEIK | % WT binding | 123

Which Mean % WT Binding is reported for this binder? Refmab #3 (antibody, V domains shown, The alanine scan used IgG or Fab) VH: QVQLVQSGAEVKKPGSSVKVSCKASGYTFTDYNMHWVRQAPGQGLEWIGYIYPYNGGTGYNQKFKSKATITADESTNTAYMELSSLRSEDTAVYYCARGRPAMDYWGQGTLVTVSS VL: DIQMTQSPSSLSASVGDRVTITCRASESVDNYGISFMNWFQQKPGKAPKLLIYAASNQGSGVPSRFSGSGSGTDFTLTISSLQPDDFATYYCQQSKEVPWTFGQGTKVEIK 152

Which Mean % WT Binding is reported for this binder? Refmab #1 (antibody, V domains shown, The alanine scan used IgG or Fab; also called hP67.6) VH: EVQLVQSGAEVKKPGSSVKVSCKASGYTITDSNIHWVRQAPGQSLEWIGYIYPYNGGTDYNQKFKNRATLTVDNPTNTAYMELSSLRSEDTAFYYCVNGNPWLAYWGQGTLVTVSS VL: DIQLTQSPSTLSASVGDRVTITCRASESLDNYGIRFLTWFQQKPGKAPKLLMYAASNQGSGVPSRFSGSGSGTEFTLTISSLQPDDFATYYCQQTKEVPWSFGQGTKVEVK 106

Which Mean % WT Binding is reported for this binder? Refmab #4 (antibody, V domains shown, The alanine scan used IgG or Fab) VH: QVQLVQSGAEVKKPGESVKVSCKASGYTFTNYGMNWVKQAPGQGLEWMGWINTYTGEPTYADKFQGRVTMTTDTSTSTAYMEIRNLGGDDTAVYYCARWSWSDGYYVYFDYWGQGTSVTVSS VL: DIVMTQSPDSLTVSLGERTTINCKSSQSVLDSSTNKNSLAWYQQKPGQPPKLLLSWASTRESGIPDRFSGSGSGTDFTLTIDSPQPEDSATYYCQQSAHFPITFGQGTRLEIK 180
